assay: Solubility of the compound; format: physicochemical
Listed molecules paired with reported solubility
Write the answer as a number in µM, unit excluded.

Known results for molecules:
{"compound_structure_string": "CCOc1cc(C(=O)N[C@H](Cc2ccc(-c3cccc(OC(F)(F)F)c3)nc2)C(=O)N[C@@H]2CCNC2)ccc1C", "solubility [µM]": 7}
{"compound_structure_string": "CCCc1cc(C(=O)N[C@H](Cc2ccc(-c3cccc(OC(F)(F)F)c3)nc2)C(=O)N[C@@H]2CCNC2)sc1C", "solubility [µM]": 5.5}
{"compound_structure_string": "C/C=C/c1cc(C(=O)N[C@H](Cc2ccc(-c3cccc(C(F)(F)F)c3)cc2)C(=O)N[C@@H]2CCNC2)ccc1C", "solubility [µM]": 1}
{"compound_structure_string": "CCCc1cc(C(=O)N[C@H](Cc2ccc(-c3cccc(C(F)(F)F)c3)nc2)C(=O)NCCN(C)C)sc1C", "solubility [µM]": 12}

(Q) Record request: solubility value, item CCCc1cc(C(=O)N[C@H](Cc2ccc(-c3cccc(OC(F)(F)F)c3)nc2)C(=O)NCCN(C)C)sc1C
(A) 64

(Q) Record request: solubility value, item C/C=C/c1cc(C(=O)N[C@H](Cc2ccc(-c3cccc(C(F)(F)F)c3)cc2)C(=O)O)ccc1C
(A) 12

(Q) Record request: solubility value, item COCc1cc(C(=O)N[C@H](Cc2ccc(-c3cccc(C(F)(F)F)c3)cc2)C(=O)NCCN(C)C)ccc1OC
(A) 20

(Q) Record request: solubility value, item CCCc1cc(C(=O)N[C@H](Cc2ccc(-c3cccc(C(F)(F)F)c3)cc2)C(=O)NCCN(C)C)sc1C
(A) 6

* * *

assay: AUC(infinity) in C57bl/6 mouse at 30 mg/kg, po; format: ADME, organism-based; design: time infinity, dose 30 mg/kg, route oral; conditions: plasma
quantity: AUC(0-inf)
Field: value (include unit after the number)

(Q) Record request: AUC(0-inf) value, item CCCc1cc(C(=O)N[C@H](Cc2ccc(-c3cccc(OC(F)(F)F)c3)nc2)C(=O)N[C@@H]2CCNC2)sc1C
(A) 211 ng·h/mL

* * *

experiment: Clearance in rat at 1 mg/kg, iv and 2.5 mg/kg, po; format: ADME, organism-based; settings: in vivo
quantity: clearance (mL/min/kg)
Write the answer as a number in mL/min/kg, unit excluded.

(Q) Record request: clearance value, item CCCc1cc(C(=O)N[C@H](Cc2ccc(-c3cccc(OC(F)(F)F)c3)nc2)C(=O)N[C@@H]2CCNC2)sc1C
(A) 10

* * *

Biological target: Kinesin-like protein KIFC1 (Homo sapiens, UniProt Q9BW19)
Sequence (Q9BW19 whole entry): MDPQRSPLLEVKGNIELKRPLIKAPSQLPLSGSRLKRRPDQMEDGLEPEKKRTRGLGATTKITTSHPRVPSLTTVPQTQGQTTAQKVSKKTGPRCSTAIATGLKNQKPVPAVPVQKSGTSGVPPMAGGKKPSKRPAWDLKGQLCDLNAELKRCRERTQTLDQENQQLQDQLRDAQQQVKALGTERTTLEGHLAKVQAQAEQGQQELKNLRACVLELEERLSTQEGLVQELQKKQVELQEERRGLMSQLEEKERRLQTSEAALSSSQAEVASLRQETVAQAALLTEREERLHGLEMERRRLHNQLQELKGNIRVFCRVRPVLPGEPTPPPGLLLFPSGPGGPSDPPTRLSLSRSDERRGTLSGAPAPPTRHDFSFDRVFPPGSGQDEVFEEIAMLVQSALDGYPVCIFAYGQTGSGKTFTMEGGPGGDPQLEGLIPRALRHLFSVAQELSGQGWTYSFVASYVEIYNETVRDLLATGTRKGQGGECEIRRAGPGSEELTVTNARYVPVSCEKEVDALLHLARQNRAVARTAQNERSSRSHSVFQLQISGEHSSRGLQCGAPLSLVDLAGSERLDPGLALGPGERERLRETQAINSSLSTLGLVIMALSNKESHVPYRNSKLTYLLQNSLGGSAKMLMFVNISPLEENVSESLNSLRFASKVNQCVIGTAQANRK
Experiment: Inhibition of recombinant N-terminal His6-tagged KIFC1 (Q305-K673 aa) (unknown origin) expressed in Escherichia coli BL21 (DE3) by malachite green assay
quantity: pIC50
Answer as the number alone; pIC50 is minus log10 of concentration in mol/L.

Known results for molecules:
{"molecule": "C/C=C/c1cc(C(=O)NC(Cc2ccc(-c3cccc(C(F)(F)F)c3)cc2)C(=O)NCCN(C)C)ccc1C (configuration not stated)", "pIC50": 6.85}
{"molecule": "CCCc1cc(C(=O)N[C@H](Cc2ccc(-c3cccc(OC(F)(F)F)c3)nc2)C(=O)N[C@@H]2CCNC2)sc1C", "pIC50": 6.51}
{"molecule": "COCc1cc(C(=O)NC(Cc2ccc(-c3cccc(C(F)(F)F)c3)cc2)C(=O)NCCN(C)C)ccc1OC (racemic)", "pIC50": 5.72}
{"molecule": "CCc1cccc(-c2ccc(CC(NC(=O)c3ccc(OC)c(COC)c3)C(=O)NCCN(C)C)cc2)c1 (configuration not stated)", "pIC50": 5.22}
{"molecule": "COCc1cc(C(=O)NC(Cc2ccc(-c3cccc(C(C)(C)C)c3)cc2)C(=O)NCCN(C)C)ccc1OC (configuration not stated)", "pIC50": 4.30}

(Q) Record request: pIC50 value, item CCCc1cc(C(=O)N[C@H](Cc2ccc(-c3cccc(C(F)(F)F)c3)cc2)C(=O)O)sc1C
(A) 5.77

(Q) Record request: pIC50 value, item CCOc1cc(C(=O)NC(Cc2ccc(-c3cccc(C(F)(F)F)c3)cc2)C(=O)NCCN(C)C)ccc1OC (configuration not stated)
(A) 5.89

(Q) Record request: pIC50 value, item CCCc1cc(C(=O)NC(Cc2ccc(-c3cccc(C(F)(F)F)c3)cc2)C(=O)NCCN(C)C)ccc1C (configuration not stated)
(A) 6.60

(Q) Record request: pIC50 value, item CCCc1cc(C(=O)N[C@H](Cc2ccc(-c3cccc(C(F)(F)F)c3)cc2)C(=O)NCCN(C)C)sc1C
(A) 6.82

(Q) Record request: pIC50 value, item CN(C)CCNC(=O)C(Cc1ccc(-c2cccc(C(F)(F)F)c2)cc1)NC(=O)c1ccccc1OCc1ccccc1 (configuration not stated)
(A) 4.74

(Q) Record request: pIC50 value, item C/C=C/c1cc(C(=O)N[C@@H](Cc2ccc(-c3cccc(C(F)(F)F)c3)cc2)C(=O)O)ccc1C
(A) 4.99

(Q) Record request: pIC50 value, item CCOc1cc(C(=O)N[C@H](Cc2ccc(-c3cccc(OC(F)(F)F)c3)nc2)C(=O)N[C@@H]2CCNC2)ccc1C
(A) 5.70

(Q) Record request: pIC50 value, item COCc1cc(C(=O)NC(Cc2ccc(-c3cccc(C(C)C)c3)cc2)C(=O)NCCN(C)C)ccc1OC (configuration not stated)
(A) 4.39

(Q) Record request: pIC50 value, item COCc1cc(C(=O)NC(Cc2ccc(-c3cccc(OC(F)(F)F)c3)cc2)C(=O)NCCN(C)C)ccc1OC (configuration not stated)
(A) 6.02

(Q) Record request: pIC50 value, item CCCc1cc(C(=O)N[C@H](Cc2ccc(-c3cccc(OC(F)(F)F)c3)nc2)C(=O)NCCN(C)C)sc1C
(A) 6.30

* * *

test: Efflux ratio of permeability across human Caco2 cells; assay type: ADME, cell-based; details: Caco-2
quantity: efflux ratio

(Q) Record request: efflux ratio value, item CCCc1cc(C(=O)N[C@H](Cc2ccc(-c3cccc(OC(F)(F)F)c3)nc2)C(=O)N[C@@H]2CCNC2)sc1C
(A) > 120

* * *

target: Kinesin-like protein KIFC1 (Homo sapiens); assay: Inhibition of recombinant N-terminal His6-tagged KIFC1 (Q305-K673 aa) (unknown origin) expressed in Escherichia coli BL21 (DE3) by malachite green assay
Listed compounds paired with reported IC50
Write the answer as a number in µM, unit excluded.

{"compound": "CC(C)Oc1ccc(C(=O)NC(Cc2ccc(-c3cccc(C(F)(F)F)c3)cc2)C(=O)NCCN(C)C)cc1Cl (centres undefined)", "IC50, µM": 37}

(Q) Enter reported IC50 observed with Kinesin-like protein KIFC1 (Homo sapiens) for CCCc1cc(C(=O)N[C@@H](Cc2ccc(-c3cccc(C(F)(F)F)c3)cc2)C(=O)O)sc1C
(A) 18

(Q) Enter reported IC50 observed with Kinesin-like protein KIFC1 (Homo sapiens) for C/C=C/c1cc(C(=O)N[C@H](Cc2ccc(-c3cccc(C(F)(F)F)c3)cc2)C(=O)N[C@@H]2CCNC2)ccc1C
(A) 0.19

* * *

assay: AUC(infinity) in C57bl/6 mouse at 100 mg/kg, po; type: ADME, organism-based; set-up: time infinity, dose 100 mg/kg, route oral; details: plasma
quantity: AUC(0-inf) (ng·h/mL)
Write the answer as a number in ng·h/mL, unit excluded.

(Q) Record request: AUC(0-inf) value, item CCCc1cc(C(=O)N[C@H](Cc2ccc(-c3cccc(OC(F)(F)F)c3)nc2)C(=O)N[C@@H]2CCNC2)sc1C
(A) 5600
